Source listed as a melting point compilation (Tetko et al.; mined from patent text by program, amines drawn as free bases though some values may be those of a salt).

Attribute: melting point

>  <molecule>
Clc1cnn2c(-c3ccncc3)ccnc12

>  <result>
183 to 184 °C

$$$$
>  <molecule>
COCCOC(=O)Cc1cccc(Nc2nccc(-c3sc(N)nc3C)n2)c1

>  <result>
182 to 184 °C

$$$$
>  <molecule>
O=C1N(Cc2cccc(O)c2)c2ccccc2C12COc1cc3c(cc12)CCO3 (stereo not given)

>  <result>
225 to 227 °C

$$$$

// recorded melting point for Cc1cn2ccc(NC(=O)C(F)(F)F)c(I)c2n1 : 168 °C

// recorded melting point for CC1(C)Oc2cc3nonc3cc2C(NC(=O)NCCCCl)C1O (stereo not given) : 83 to 85 °C

// recorded melting point for CCOC(=O)c1ccc(N2CCC(NC(=O)OC(C)(C)C)CC2)nc1 : 140 to 142 °C

// recorded melting point for N#Cc1cccc(-c2ccc(OCC(CN3C(=O)CCC3=O)N(O)C=O)cc2)c1 (stereo not given) : 128 °C

// recorded melting point for CC1(C)NC(=O)CN1C(=O)CNC(=O)OCc1ccccc1 : 135 to 136 °C

// recorded melting point for CCOC(=O)c1ccccc1-n1c(=O)c2ccccc2n(CCCCBr)c1=O : 101 to 102 °C

// recorded melting point for Cc1c([N+](=O)[O-])ccnc1C(=O)NCCNC(=O)OC(C)(C)C : 133 to 134 °C

----------
Attribute: melting point

>  <compound>
CCCC(=O)Nc1cnc2cccnc2c1O

>  <result>
> 360 °C

$$$$
>  <compound>
O=C1Nc2ccc(F)cc2C(=O)N2CC[C@@H]12

>  <result>
216 to 217 °C

$$$$
>  <compound>
CC(C)(C#N)c1ccc(-n2c(-c3cc(-c4cnc5ccccc5c4)ccn3)c[nH]c2=O)cc1

>  <result>
271 °C

$$$$
>  <compound>
O=[N+]([O-])c1ccc(F)c(Br)c1O

>  <result>
65 to 66 °C

$$$$
>  <compound>
Cc1ccccc1[C@H](O)CCc1c(C(=O)N(C)C)cc2c(nc(C)n2C)c1O

>  <result>
200 to 202 °C

$$$$
>  <compound>
CN1C(O)=C(C(=O)Nc2ccc(Cl)cc2)c2sccc2S1(=O)=O

>  <result>
172 °C

$$$$
>  <compound>
CCOc1nc2c(nc1C(=O)Nc1nccs1)c(C)nn2CC

>  <result>
158 to 159 °C

$$$$
>  <compound>
CN1CCN(C2=Nc3ccccc3Sc3nccn32)CC1

>  <result>
145 to 147 °C

$$$$

// recorded melting point for Cc1cc(C)c(C2C(=O)N3CCCCN3C2=O)c(C)c1 : 247 to 248 °C

// recorded melting point for O=C(O)CCCCNC(=O)c1ccc(Cl)cc1O : 140 to 141 °C

// recorded melting point for O=C1NC(=O)C(Cc2ccc(OCCOc3ccccc3)cc2)S1 (stereo unspecified) : 133 °C

----------
measured_attribute: melting point

>  <molecule>
CC1=NN(CC2CC2)CC2=C3C1=NN(c1ccc(C(C)C)cc1Br)C(=O)N3CC2

>  <measured_attribute>
melting point

>  <result>
89 to 90 °C

$$$$
>  <molecule>
CCCCCCCCCCCC(=O)N1CCc2nc3ccccc3c(C)c2CC1

>  <measured_attribute>
melting point

>  <result>
100 °C

$$$$
>  <molecule>
CC(=O)Nc1ccc(Cc2nc3c(c4c2[nH]c2ccccc24)C(=O)CC(C)(C)C3)cc1

>  <measured_attribute>
melting point

>  <result>
153 to 154 °C

$$$$

// recorded melting point for CCCCCCSC(=S)N1Cc2[nH]c3ccccc3c2CC1CO (centres undefined) : 102 to 106 °C

// recorded melting point for CCCN1CCC(c2ccccc2)=C(C(=O)NCC)C1 : 80 to 83 °C

// recorded melting point for CC(Oc1ncn(-c2ccccc2Cl)n1)C(=O)O (centres undefined) : 104 to 106 °C

// recorded melting point for COc1ccc(Sc2sc(S(N)(=O)=O)cc2C)cc1 : 107 to 110 °C

// recorded melting point for CCc1nc(OC)c(NC(=O)N2CCN(c3cc(C)cc(C)c3)CC2)cc1C(=O)NC(C)C(=O)Nc1cc(CO)cc(Nc2c3ccccc3nc3ccc(C)cc23)c1 (centres undefined) : 164 to 166 °C

// recorded melting point for Nc1cccc(-c2ccc(OCC3CNC3)c3ccccc23)n1 : 88 to 110 °C

// recorded melting point for O=C(c1ccccc1)N1CCc2cc(S(=O)(=O)N3CCN(c4cccc(Cl)c4)CC3)ccc21 : 200 to 201 °C
